system name: G-protein coupled receptor 55 (Homo sapiens)
protocol text: GPR55 antagonists blocking LPI-driven arrestin recruitment, primary screen, imaging, U2OS, beta-arrestin-GFP, LPI agonist (AID 2013);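 note: U2OS cells stably carrying GPR55 and arrestin-GFP stimulated by 5 µM LPI near EC80; imaged beta-arrestin-GFP aggregate spots per cell after agonist stimulation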
study conditions: U2OS GPR55 beta-arrestin-GFP translocation imaging, LPI antagonism; at 10 µM
Among all 290,000 compounds or so, about 370 (0.13%) were called active.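 Rule for the calls: active = spots per cell inhibited over 60%, with over 100 cells counted and total cytoplasm intensity under 500,000; inconclusive = wells with under 100 cells, flagged as likely toxic; inactive = the rest.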 Many of the other results were omitted from the sample, so actives are more common in it than they were. Potency and affinity values are given separately.
Labels: YES = active, NO = inactive

compound | assigned category
O=C(CCn1ccnc1)Nc1cc(Cl)ccc1O | NO
CC(C)(C)n1nnnc1C(c1cccs1)N(Cc1cccnc1)CC1CCCO1 (centres undefined) | NO
COc1ccc(CCn2c(C)cc(C(=O)COC(=O)c3ccc(NC(=O)CC#N)cc3)c2C)cc1 | NO
O=C(O)c1cccc(N2C(=O)/C(=C/c3ccc([N+](=O)[O-])cc3)C=C2c2ccccc2)c1 | NO
COc1cc(NC(=O)CN2CCCCC2)c(C)cc1[N+](=O)[O-] | NO
COc1ccc2[nH]c(=O)c(COC(=O)c3ccco3)cc2c1 | NO
Cc1nc(N2CCOCC2)c(C#N)c2c1COC(C)(C)C2 | NO
CCCC(=O)Nc1nc(C)c(C(C)=O)s1 | NO
CNC(=S)NN(c1ccccc1)c1ccccc1 | NO
CCOc1ccc(NC(=O)CN(C)S(=O)(=O)c2ccc3c(c2)CCC(=O)N3)cc1 | NO
COC(=O)c1sccc1NC(=S)N1CCCCC1 | NO
COc1cccc2c1OCC(CN1CCN(Cc3ccccc3F)C(CCO)C1)=C2 (centres undefined) | NO
Cc1nc(N2CCN(S(=O)(=O)c3ccccc3)CC2)c2c3c(sc2n1)CC(C)CC3 (centres undefined) | NO
COc1ccccc1NC(=O)CCN1CC(C)OC(C)C1 (centres undefined) | NO
CCN(CC)CCNC(=S)N1CCn2c(nc3ccccc32)C1 | NO
Cc1ccc(S(=O)(=O)N2CCN(c3nc(C(C)C)c4c(c3C#N)CC(C)(C)OC4)CC2)cc1 | NO
O=C(Nc1ccc(Nc2ccccc2)cc1)c1ccc(Cl)c([N+](=O)[O-])c1 | NO
Cc1ccc(C(c2nnnn2C2CCCCC2)N2CCc3ccccc32)cc1 (centres undefined) | NO
CCOC(=O)C1=C(c2ccccc2)NC(=O)NC1c1ccc(OC)cc1OC (centres undefined) | NO
CCc1nc(N2CCN(C(=O)c3ccco3)CC2)c2c3c(sc2n1)CCCC3 | NO
CC(=O)N1c2ccccc2CCc2ccc(N)cc21 | NO
CCc1ccccc1N(C)C(=O)CCc1nc(-c2ccc(C)cc2)no1 | NO
O=C1/C(=C/c2ccc([N+](=O)[O-])cc2)C=C(c2ccccc2)N1c1ccccc1 | NO
CC(c1nnnn1C(C)(C)C)N(Cc1cccnc1)Cc1ccccc1Cl (centres undefined) | NO
Cc1nc(N2CCN(C(=O)c3cccs3)CC2)c2c3c(sc2n1)CCCC3 | NO
Clc1nc(CN2CCOCC2)nc2sc3c(c12)CCC3 | NO
CCCN1C(=O)/C(=C/C=C2\N(CC)c3ccccc3C2(C)C)SC1=S | NO
Cc1ccc(-c2noc(CCC(=O)N(C)c3ccccc3C)n2)cc1 | NO
O=S1(=O)CC=C(CSC(=S)NC2CCS(=O)(=O)C2)C1 (centres undefined) | YES
CC(=O)N/C(=N/c1nc(C)cc(C)n1)Nc1ccc(NC(C)=O)cc1 | NO
O=C(O)Cn1ncn(-c2ccc(OC(F)(F)F)cc2)c1=O | NO
Cc1ccc(OCC(O)Cn2c(=N)n(Cc3ccccc3)c3ccccc32)cc1 (centres undefined) | NO
Cc1ccccc1-n1cc(CNC(=O)CCc2nnc(CCc3ccccc3)o2)cn1 | NO
CC(=O)N1CCN(c2nc(C)nc3sc4c(c23)CCC(C)C4)CC1 (centres undefined) | NO
Cc1cccn2c(=O)c(/C=C(\C#N)S(=O)(=O)c3ccccc3)c(N3CCN(Cc4ccccc4)CC3)nc12 | NO
O=C(NCC1CC1)Nc1ccc(Cl)cc1 | NO
O=C(CSc1ccccc1C(=O)N1CCCCC1)NCC1CCCCC1 | NO
CCN(C(=O)CSc1nnc(Nc2ccccc2C)s1)C1CCS(=O)(=O)C1 (centres undefined) | NO
O=C(Nc1ccc(C(O)(C(F)(F)F)C(F)(F)F)cc1)c1ccc(Cl)c([N+](=O)[O-])c1 | YES
O=C(NCc1ccccn1)c1ccc(CNS(=O)(=O)c2cccc(C(F)(F)F)c2)cc1 | NO
COc1ccc(C)cc1NC(=O)CCNS(=O)(=O)c1cccc2nonc12 | NO
Clc1nc(CN2CCCCC2)nc2sc3c(c12)CCC3 | NO
CCCCNC(=S)N(C)/N=C/c1sc(N2CCCCC2)nc1-c1cccs1 | NO
COc1ccc(C(C)=O)cc1CSc1nnc(Nc2ccc(C)cc2C)s1 | NO
